- Test system: OCI-LY10
- ASSAY EXPLANATION: CTG Cell Viability Assay - OCI-LY10
- Type: cell-based, human
- MEASUREMENT PARAMETERS: Homo sapiens, OCI-Ly10, 96 h, OCI-LY10, 4 days; read-out: CTG Cell Viability Assay - OCI-LY10: Average external-IC50
Measured IC50, listed per entry for reference.

Consider the following illustrative entries.
COMPOUND | IC50
NCCCOCCCNC[C@H]1CC[C@H](n2cc(NC(=O)c3coc(-c4ccnc(NCC5CC5)c4)n3)c(C(F)F)n2)CC1 [I-235] | > 1 µM
CN(C[C@H]1CC[C@H](n2cc(NC(=O)c3coc(-c4ccnc(NCC5CC5)c4)n3)c(C(F)F)n2)CC1)C1CCN(Cc2ccnc3c2c2ccccc2n3C2CCC(=O)NC2=O)CC1 (some centres unmarked) [I-241] | 0.5 to 1 µM
CN(CCC1CCN(C(=O)c2ccc(CNCc3ccc(-c4ccc5c(cnn5CC5CC5)c4)cc3)cc2)CC1)C[C@H]1CC[C@H](n2cc(NC(=O)c3coc(-c4ccnc(NCC5CC5)c4)n3)c(C(F)F)n2)CC1 [I-134] | > 1 µM
O=C1CCC(n2c3cccc(CCCOC4CCN(C[C@H]5CC[C@H](n6cc(NC(=O)c7cnn8ccc(N9CCC(O)CC9)nc78)c(C(F)F)n6)CC5)CC4)c3c3cccnc32)C(=O)N1 (some centres unmarked) [I-151] | > 1 µM

Now consider a different compound.
Ask | Recorded IC50 for CN(CCCOCCCc1cccc2c1n(C)c(=O)n2[C@H]1CCC(=O)NC1=O)C[C@H]1CC[C@H](n2cc(NC(=O)c3coc(-c4ccnc(NCC5CC5)c4)n3)c(C(F)F)n2)CC1 (single isomer, unassigned) [I-306] with OCI-LY10, please?
Reply | > 1 µM

---

- System: OCI-LY10
- ASSAY EXPLANATION: CTG Cell Viability Assay - OCI-LY10
- Format: cell-based, human
- MEASUREMENT PARAMETERS: Homo sapiens, OCI-Ly10, 96 h, OCI-LY10, 4 days; read-out: CTG Cell Viability Assay - OCI-LY10: Average external-IC50
pIC50: −log10 of the molar value.
MEASURED PARAMETER: pIC50

Consider the following illustrative entries.
MOLECULE | pIC50
O=C1CCC(n2c3cccc(CCCOC4CCN(C[C@H]5CC[C@H](n6cc(NC(=O)c7cnn8ccc(N9CCOCC9)nc78)c(C(F)F)n6)CC5)CC4)c3c3cccnc32)C(=O)N1 (some centres unmarked) | < 6.00
CN(CCCN1CCN(c2cccc3c2C(=O)N(C2CCC(=O)NC2=O)C3=O)CC1)C[C@H]1CC[C@H](n2cc(NC(=O)c3cnn4ccc(N5CCOCC5)nc34)c(C(F)F)n2)CC1 (some centres unmarked) | < 6.00
Cn1c(=O)n(C2CCC(=O)NC2=O)c2cccc(CN3CCC(CN4CCC(n5cc(NC(=O)c6coc(-c7ccnc(NCC8CC8)c7)n6)c(C(F)F)n5)CC4)CC3)c21 (centres unmarked) | > 7.30

Ask | Item under review: Cn1c(=O)n(C2CCC(=O)NC2=O)c2cccc(CCCOCCCOC3CCN(C4CCC(Nc5ncnc6ccc(C#N)cc56)CC4)CC3)c21 (centres unmarked) . Reported pIC50?
Reply | < 6.00

Ask | Item under review: CN(CCCOCCc1ccc2c(c1)n(C)c(=O)n2C1CCC(=O)NC1=O)C[C@H]1CC[C@H](n2cc(NC(=O)c3coc(-c4ccnc(NCC5CC5)c4)n3)c(C(F)F)n2)CC1 (some centres unmarked) . Reported pIC50?
Reply | < 6.00

Ask | Item under review: CN(Cc1ccc(-n2cc(NC(=O)c3coc(-c4ccnc(NCC5CC5)c4)n3)c(C(F)F)n2)cc1)C1CCN(Cc2cccc3c2n(C)c(=O)n3C2CCC(=O)NC2=O)CC1 (centres unmarked) . Reported pIC50?
Reply | > 7.30

Ask | Item under review: CN(CC1CCC(n2cc(NC(=O)c3cnn4ccc(C5CCOCC5)nc34)c(C(F)F)n2)CC1)[C@H]1CC[C@H](Nc2cccc3c2C(=O)N(C2CCC(=O)NC2=O)C3=O)CC1 (some centres unmarked) . Reported pIC50?
Reply | < 6.00

Ask | Item under review: CC[C@@H]1[C@H](F)C(=O)N[C@@H]1COc1ncc(C#C[C@H]2CC[C@H](CN(C)C3CCN(Cc4cccc5c4n(C)c(=O)n5C4CCC(=O)NC4=O)CC3)CC2)c2cc(C(N)=O)c(OC)cc12 (some centres unmarked) . Reported pIC50?
Reply | < 6.00

Ask | Item under review: CC[C@@H]1[C@H](F)C(=O)N[C@@H]1COc1ncc(C#C[C@H]2CC[C@H](CN(C)CCCc3ccc(CNc4cccc5c4C(=O)N(C4CCC(=O)NC4=O)C5=O)cc3)CC2)c2cc(C(N)=O)c(OC)cc12 (some centres unmarked) . Reported pIC50?
Reply | > 7.30

Ask | Item under review: Cn1c(=O)n(C2CCC(=O)NC2=O)c2cccc(CC3CCN(c4ccc(CN5CCC(n6cc(NC(=O)c7cnn8ccc(N9C[C@H]%10C[C@@H]9CO%10)nc78)c(C(F)F)n6)CC5)cc4)CC3)c21 (some centres unmarked) . Reported pIC50?
Reply | < 6.00

Ask | Item under review: CC[C@@H]1CC(=O)N[C@@H]1COc1ncc(C#CC2CCN(CCCOCCCc3cccc4c3n(C)c(=O)n4C3CCC(=O)NC3=O)CC2)c2cc(C(N)=O)c(OC)cc12 (some centres unmarked) . Reported pIC50?
Reply | < 6.00
